Entries and their DC50
- assayed_system: IRAK4 (Homo sapiens, UniProt Q9NWZ3)
- Construct: endogenous in cells; host or cells: OCI-LY10
- test: IRAK4 MSD Degradation in OCI-LY10
- Format: cell-based
- condition_parameters: OCI-LY10 cells, Meso Scale Discovery, incubated 4 to 24 hours
recorded_endpoint: DC50

CC(C)Nc1c(C(=O)N[C@H]2CC[C@H](CN3CCN(c4cccc5c(N6CCC(=O)NC6=O)cncc45)CC3)CC2)cnc2sc(-c3cncs3)cc12    10 to 50 nM
CN(C[C@H]1C[C@H](n2cc3cc(NC(=O)c4cccc(C(F)(F)F)n4)c(C(F)F)cc3n2)C1)C1CCN(c2cccc3c2n(C)c(=O)n3C2CCC(=O)NC2=O)CC1 (some centres unmarked)    10 to 50 nM
CC(C)(O)c1cc2nc([C@H]3CC[C@H](CN4CC5(CC(CCNc6cccc7c6C(=O)N(C6CCC(=O)NC6=O)C7=O)C5)C4)CC3)sc2cc1NC(=O)c1cncc(C#N)c1 (some centres unmarked)    10 to 50 nM
COc1cc2nn([C@H]3CC[C@H](CN4C5CC4CN(c4cccc6c(N7CCC(=O)NC7=O)cncc46)C5)CC3)cc2cc1NC(=O)c1cccc(C(F)(F)F)n1    < 10 nM
Cn1c(=O)n(C2CCC(=O)NC2=O)c2cccc(C3CCN(C[C@H]4CC[C@H](n5cc6cc(NC(=O)c7ncc(Cl)s7)ccc6n5)CC4)CC3)c21 (some centres unmarked)    > 200 nM

----------
- assayed_system: IRAK4 (Homo sapiens, UniProt Q9NWZ3)
- Construct: endogenous in cells; host or cells: OCI-LY10
- Sequence (Q9NWZ3 1-460): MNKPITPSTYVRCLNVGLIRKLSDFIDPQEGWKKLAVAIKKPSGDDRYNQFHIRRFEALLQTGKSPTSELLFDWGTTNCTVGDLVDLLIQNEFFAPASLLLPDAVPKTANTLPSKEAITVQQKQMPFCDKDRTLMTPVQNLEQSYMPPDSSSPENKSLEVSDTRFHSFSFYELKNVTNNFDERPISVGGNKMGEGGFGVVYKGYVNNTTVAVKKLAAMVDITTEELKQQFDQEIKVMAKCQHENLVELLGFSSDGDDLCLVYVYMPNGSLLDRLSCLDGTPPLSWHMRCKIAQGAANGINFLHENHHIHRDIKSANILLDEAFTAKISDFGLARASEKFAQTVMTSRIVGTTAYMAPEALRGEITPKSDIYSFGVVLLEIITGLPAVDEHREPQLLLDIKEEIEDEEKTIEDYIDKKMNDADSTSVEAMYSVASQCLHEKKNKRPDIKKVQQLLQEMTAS
- test: IRAK4 MSD Degradation in OCI-LY10
- Format: cell-based
- condition_parameters: OCI-LY10 cells, Meso Scale Discovery, incubated 4 to 24 hours
DC50 overview
recorded_endpoint: DC50

Cn1c(=O)n(C2CCC(=O)NC2=O)c2ccc(C3CCN(C[C@H]4CC[C@H](n5cc6cc(NC(=O)c7cccc(C(F)(F)F)n7)ccc6n5)CC4)CC3)c(Cl)c21 (some centres unmarked)    > 200 nM
COc1cc2c(cc1NC(=O)c1cccc(C(F)(F)F)n1)cc([C@H]1CC[C@H](CN3CCC(c4cccc5c4n(C)c(=O)n5C4CCC(=O)NC4=O)CC3)CC1)n2C (some centres unmarked)    > 200 nM
COc1cc2nn([C@H]3CC[C@H](CN4CCC5(CC4)CC(CNc4cccc6c4C(=O)N(C4CCC(=O)NC4=O)C6=O)C5)CC3)cc2cc1NC(=O)c1cccc(C(C)(F)F)n1 (some centres unmarked)    50 to 100 nM
Cn1c(=O)n(C2CCC(=O)NC2=O)c2ccc(F)c(C3CCN(C[C@H]4C[C@H](n5cc6cc(NC(=O)c7cccc(C(F)(F)F)n7)ncc6n5)C4)CC3)c21 (some centres unmarked)    50 to 100 nM
Cn1c(=O)n(C2CCC(=O)NC2=O)c2cccc(C3CCN(C[C@H]4C[C@H](n5cc6cc(NC(=O)c7cccc(C(F)(F)F)n7)ccc6n5)C4)CC3)c21 (some centres unmarked)    100 to 200 nM
COc1cc2nn([C@H]3CC[C@H](CN(C)C4CCN(c5ccc6c(N7CCC(=O)NC7=O)cncc6c5)CC4)CC3)cc2cc1NC(=O)c1cccc(C(F)(F)F)n1    < 10 nM
Cc1cc2nn([C@H]3CC[C@H](CN4CCN(c5cccc6c5n(C)c(=O)n6C5CCC(=O)NC5=O)CC4)CC3)cc2cc1NC(=O)c1cncc(C(F)(F)F)n1 (some centres unmarked)    < 10 nM
Cc1cccc(C(=O)Nc2cc3sc([C@H]4CC[C@H](C(=O)N5CCN(CCCNc6cccc7c6C(=O)N(C6CCC(=O)NC6=O)C7=O)CC5)CC4)nc3cc2C(C)(C)O)n1 (some centres unmarked)    < 10 nM
Cc1cc2nn([C@H]3CC[C@H](CN4CCC(c5cccc6c5n(C)c(=O)n6C5CCC(=O)NC5=O)CC4)CC3)cc2cc1NC(=O)c1cccc(C(F)(F)F)n1 (some centres unmarked)    < 10 nM
CC(C)c1cc2nn([C@H]3CC[C@H](CN4CCN(c5cccc6c5n(C)c(=O)n6C5CCC(=O)NC5=O)CC4)CC3)cc2cc1NC(=O)c1cccc(C(F)(F)F)n1 (some centres unmarked)    < 10 nM
COc1cc2nn([C@H]3CC[C@H](CN4CC=C(c5ccc6c(c5)n(C)c(=O)n6C5CCC(=O)NC5=O)C4)CC3)cc2cc1NC(=O)c1cccc(C(F)(F)F)n1 (some centres unmarked)    < 10 nM
COc1cc2nn([C@H]3CC[C@H](CN4CCC(CCNc5cccc6c5C(=O)N(C5CCC(=O)NC5=O)C6=O)CC4)CC3)cc2cc1NC(=O)c1cccc(C(C)(F)F)n1 (some centres unmarked)    10 to 50 nM
COc1cc2nn([C@H]3CC[C@H](CN4CCC(c5cccc6c(N7CCC(=O)NC7=O)cncc56)CC4)CC3)cc2cc1NC(=O)c1cncc(C#N)c1    10 to 50 nM
O=C1CCC(N2C(=O)c3cccc(NCCC4CC5(C4)CN(C[C@H]4CC[C@H](c6nc7cc(C(=O)O)c(NC(=O)c8cccc(C(F)(F)F)n8)cc7s6)CC4)C5)c3C2=O)C(=O)N1 (some centres unmarked)    10 to 50 nM

----------
- assayed_system: IRAK4 (Homo sapiens, UniProt Q9NWZ3)
- Construct: endogenous in cells; host or cells: OCI-LY10
- test: IRAK4 MSD Degradation in OCI-LY10
- Assay type: cell-based
- condition_parameters: OCI-LY10 cells, Meso Scale Discovery, incubated 4 to 24 hours
Quick reference for DC50 among some compounds
recorded_endpoint: DC50

COc1ccc2c(c1C1CCN(C[C@H]3CC[C@H](n4cc5cc(NC(=O)c6cccc(C(F)(F)F)n6)ncc5n4)CC3)CC1)n(C)c(=O)n2C1CCC(=O)NC1=O (some centres unmarked) [I-104]    < 10 nM
COc1cc2nn([C@H]3C[C@H](CN4CCC(c5cccc6c5n(C)c(=O)n6C5CCC(=O)NC5=O)CC4)C3)cc2cc1NC(=O)c1cccc(C(F)(F)F)n1 (some centres unmarked)    < 10 nM
CN(C[C@H]1CC[C@H](n2cc3cc(NC(=O)c4cccc(C(F)(F)F)n4)c(C(C)(C)O)cc3n2)CC1)C1CCN(c2ccc3c(N4CCC(=O)NC4=O)cncc3c2)CC1    < 10 nM
COc1cc2nn([C@H]3CC[C@H](CN4C[C@@H]5C[C@H]4CN5c4cccc5c4n(C)c(=O)n5C4CCC(=O)NC4=O)CC3)cc2cc1NC(=O)c1cccc(C(F)(F)F)n1 (some centres unmarked)    < 10 nM
CSc1cc2nn([C@H]3CC[C@H](CN4CCN(c5cccc6c5n(C)c(=O)n6C5CCC(=O)NC5=O)CC4)CC3)cc2cc1NC(=O)c1cccc(C(F)(F)F)n1 (some centres unmarked)    < 10 nM

----------
Consider the following compounds and their measured DC50 readings.
- assayed_system: IRAK4 (Homo sapiens, UniProt Q9NWZ3)
- Construct: endogenous in cells; host or cells: OCI-LY10
- Sequence (Q9NWZ3 1-460): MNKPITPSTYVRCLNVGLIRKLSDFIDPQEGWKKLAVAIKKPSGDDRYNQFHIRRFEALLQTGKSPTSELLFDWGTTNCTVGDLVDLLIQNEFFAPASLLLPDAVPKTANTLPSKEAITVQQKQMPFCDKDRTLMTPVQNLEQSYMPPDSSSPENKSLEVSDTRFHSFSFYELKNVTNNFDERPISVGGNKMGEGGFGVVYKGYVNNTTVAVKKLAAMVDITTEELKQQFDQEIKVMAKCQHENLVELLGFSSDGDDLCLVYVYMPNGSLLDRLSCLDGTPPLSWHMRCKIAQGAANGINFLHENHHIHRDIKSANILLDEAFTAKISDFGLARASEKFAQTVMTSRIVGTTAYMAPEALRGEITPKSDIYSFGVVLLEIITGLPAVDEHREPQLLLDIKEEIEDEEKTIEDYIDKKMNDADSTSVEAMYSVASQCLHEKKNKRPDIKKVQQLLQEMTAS
- test: IRAK4 MSD Degradation in OCI-LY10
- Format: cell-based
- condition_parameters: OCI-LY10 cells, Meso Scale Discovery, incubated 4 to 24 hours
recorded_endpoint: DC50

COc1ccc2c(c1C1CCN(C[C@H]3CC[C@H](n4cc5cc(NC(=O)c6cccc(C(F)(F)F)n6)ccc5n4)CC3)CC1)n(C)c(=O)n2C1CCC(=O)NC1=O (stereo partly shown)    0.01 to 0.05 µM
Cc1ccc2c(c1C1CCN(C[C@H]3CC[C@H](n4cc5cc(NC(=O)c6cccc(C(F)(F)F)n6)ccc5n4)CC3)CC1)n(C)c(=O)n2C1CCC(=O)NC1=O (stereo partly shown)    < 0.01 µM
COc1cc2nn([C@H]3C[C@H](CN4CCC(c5ccc6c(N7CCC(=O)NC7=O)cncc6c5)CC4)C3)cc2cc1NC(=O)c1cccc(C(F)(F)F)n1    > 0.2 µM
COc1cc2nc(N3CCC(CN4CCN(c5cccc6c5n(C)c(=O)n6C5CCC(=O)NC5=O)CC4)CC3)sc2cc1NC(=O)c1cccc(C(F)(F)F)n1 (stereo not shown)    0.01 to 0.05 µM
